Documented half-life across a set of compounds
experiment: Half life in rat plasma; assay type: ADME
Your answer is read as h, so omit the unit and give the number.

INSERT INTO assay_data (molecular_string, recorded_endpoint, reading_unit, obs_value) VALUES
  ('CSC(=O)c1sc(-c2ccc(Cl)cc2)nc1C(Br)Br', 'half-life', 'h', 24.7);

Turning now to a further compound:
IN: Quick one: half-life for COC(=O)c1sc(-c2ccc(Cl)cc2)nc1C(Br)Br ?
OUT: 1.42

----------
tested on: Yellow fever virus; assay: Antiviral activity against Yellow fever virus 17D expressing IRES-luciferase gene infected in BHK cells assessed as inhibition of viral production after 36 hrs by luciferase reporter assay relative to control; assay type: functional
recorded_endpoint: inhibition (INH)

Example cases with answers are listed next.
INSERT INTO assay_data (molecule, recorded_endpoint, obs_value) VALUES
  ('COC(=O)c1nc(-c2ccc(Cl)cc2)sc1C(=O)OC', 'inhibition (INH)', '30.1%'),
  ('CC(=O)c1sc(-c2ccc(Cl)cc2)nc1C(Br)Br', 'inhibition (INH)', '99.9%'),
  ('O=C(N[C@@H]1OC(CO)C(O)[C@H](O)[C@H]1O)c1sc(-c2ccc(Cl)cc2)nc1C(Br)Br (single isomer, unassigned)', 'inhibition (INH)', '43.4%');

IN: Quick one: inhibition (INH) for C#CCNC(=O)c1sc(-c2ccc(Cl)cc2)nc1C(Br)Br ?
OUT: 99.7%

IN: Entry CN(C)/C=C/C(=O)c1sc(-c2ccc(Cl)cc2)nc1C(Br)Br please
OUT: 99.8%

IN: Entry COC(=O)c1nc(-c2ccc(Cl)cc2)sc1-c1nc(C)no1 please
OUT: 1.5%

IN: Entry O=C(NC[C@@H](O)CO)c1sc(-c2ccc(Cl)cc2)nc1C(Br)Br please
OUT: 99.9%

IN: Entry CCSC(=O)c1sc(-c2ccc(Cl)cc2)nc1C(Br)Br please
OUT: 99.7%

IN: Entry COCc1nc(-c2ccc(Cl)cc2)sc1C(=O)N(C)C please
OUT: 11.3%

IN: Entry COC(=O)c1sc(-c2ccc(Cl)cc2)nc1CBr please
OUT: 99.9%

IN: Entry COC(=O)c1nc(-c2ccc(Cl)cc2)sc1C(=O)N(C)C please
OUT: 74%

----------
tested on: Yellow fever virus; experiment: Antiviral activity against Yellow fever virus 17D expressing IRES-luciferase gene infected in BHK cells assessed as inhibition of viral production after 36 hrs by luciferase reporter assay relative to control; type: functional
recorded_endpoint: inhibition (INH) (%)
Your answer is read as %, so omit the unit and give the number.

INSERT INTO assay_data (molecular_string, recorded_endpoint, obs_value) VALUES
  ('COC(=O)c1sc(-c2ccc(Cl)cc2)nc1C(C)(C)C', 'inhibition (INH)', 20.9),
  ('CCOC(=O)c1sc(-c2ccc(Cl)cc2)nc1-c1ccco1', 'inhibition (INH)', 50.3),
  ('Cc1noc(-c2sc(-c3ccc(Cl)cc3)nc2C=O)n1', 'inhibition (INH)', 99.6);

IN: Quick one: inhibition (INH) for O=C(NCCO)c1sc(-c2ccc(Cl)cc2)nc1C(Br)Br ?
OUT: 99.8

IN: Entry COC(=O)c1sc(-c2ccc(Cl)cc2)nc1CS(C)(=O)=O please
OUT: -74.7

IN: Entry COC(=O)c1sc(-c2ccc(Cl)cc2)nc1C#N please
OUT: 7.8

----------
experiment: Growth inhibition of BHK15 cells after 36 hrs by XTT assay; assay type: cell-based, Mesocricetus auratus; details: hamster
recorded_endpoint: GI50 at 36 h (µM)
Your answer is read as µM, so omit the unit and give the number.

Example cases with answers are listed next.
INSERT INTO results (molecular_string, recorded_endpoint, obs_value) VALUES
  ('CCOC(=O)c1sc(-c2ccc(Cl)cc2)nc1-c1ccco1', 'GI50 at 36 h', 465),
  ('COC(=O)c1sc(-c2ccc(Cl)cc2)nc1C=O', 'GI50 at 36 h', 36.4),
  ('CC(=O)c1sc(-c2ccc(Cl)cc2)nc1C(Br)Br', 'GI50 at 36 h', 83.5),
  ('Cc1noc(-c2sc(-c3ccc(Cl)cc3)nc2C=O)n1', 'GI50 at 36 h', 163),
  ('CN(C)/C=C/C(=O)c1sc(-c2ccc(Cl)cc2)nc1C(Br)Br', 'GI50 at 36 h', 38.2),
  ('COC(=O)c1nc(-c2ccc(Cl)cc2)sc1C(=O)N(C)C', 'GI50 at 36 h', 99.7),
  ('CC(C)OC(=O)c1sc(-c2ccc(Cl)cc2)nc1C(Br)Br', 'GI50 at 36 h', 372),
  ('C=CCNC(=O)c1sc(-c2ccc(Cl)cc2)nc1C(Br)Br', 'GI50 at 36 h', 40.8),
  ('COC(=O)c1sc(-c2ccc(Cl)cc2)nc1CBr', 'GI50 at 36 h', 74.6),
  ('NC(=O)c1sc(-c2ccc(Cl)cc2)nc1C(Br)Br', 'GI50 at 36 h', 99.7);

IN: Quick one: GI50 at 36 h for COC(=O)c1sc(-c2ccc(Cl)cc2)nc1C(Cl)Cl ?
OUT: 34.1

IN: Entry CCOC(=O)c1sc(-c2ccc(Cl)cc2)nc1C(Br)Br please
OUT: 94.6

IN: Entry O=C(NCCO)c1sc(-c2ccc(Cl)cc2)nc1C(Br)Br please
OUT: 40.8

IN: Entry O=C(NC[C@@H](O)CO)c1sc(-c2ccc(Cl)cc2)nc1C(Br)Br please
OUT: 158

IN: Entry COC(=O)c1sc(-c2ccc(Cl)cc2)nc1C(Br)Br please
OUT: 222

IN: Entry CONC(=O)c1sc(-c2ccc(Cl)cc2)nc1C(Br)Br please
OUT: 81.4

----------
test: Growth inhibition of BHK15 cells after 36 hrs by XTT assay; format: cell-based, Mesocricetus auratus; settings: hamster
Documented GI50 at 36 h across a set of molecules
Your answer is read as µM, so omit the unit and give the number.

INSERT INTO measurements (molecular_string, obs_value) VALUES
  ('CCN(CC)C(=O)c1sc(-c2ccc(Cl)cc2)nc1C(Br)Br', 63.5),
  ('CSC(=O)c1sc(-c2ccc(Cl)cc2)nc1C(Br)Br', 369),
  ('CNC(=O)c1sc(-c2ccc(Cl)cc2)nc1C(Br)Br', 74.6),
  ('CN(C)C(=O)c1sc(-c2ccc(Cl)cc2)nc1C(Br)Br', 163);

IN: Quick one: GI50 at 36 h for CCNC(=O)c1sc(-c2ccc(Cl)cc2)nc1C(Br)Br ?
OUT: 33.3

IN: Entry COC(=O)c1sc(-c2ccc(Cl)cc2)nc1C(C)C please
OUT: 49.6

IN: Entry CNC(=O)c1sc(-c2ccc(Cl)cc2)nc1COC please
OUT: 50.8

IN: Entry COCc1nc(-c2ccc(Cl)cc2)sc1C(=O)OC please
OUT: 388

IN: Entry C#CCNC(=O)c1sc(-c2ccc(Cl)cc2)nc1C(Br)Br please
OUT: 23.9

IN: Entry CCSC(=O)c1sc(-c2ccc(Cl)cc2)nc1C(Br)Br please
OUT: 81.4
